- assayed.system: Cholinesterase (Homo sapiens, UniProt P06276)
- Sequence (P06276 whole entry): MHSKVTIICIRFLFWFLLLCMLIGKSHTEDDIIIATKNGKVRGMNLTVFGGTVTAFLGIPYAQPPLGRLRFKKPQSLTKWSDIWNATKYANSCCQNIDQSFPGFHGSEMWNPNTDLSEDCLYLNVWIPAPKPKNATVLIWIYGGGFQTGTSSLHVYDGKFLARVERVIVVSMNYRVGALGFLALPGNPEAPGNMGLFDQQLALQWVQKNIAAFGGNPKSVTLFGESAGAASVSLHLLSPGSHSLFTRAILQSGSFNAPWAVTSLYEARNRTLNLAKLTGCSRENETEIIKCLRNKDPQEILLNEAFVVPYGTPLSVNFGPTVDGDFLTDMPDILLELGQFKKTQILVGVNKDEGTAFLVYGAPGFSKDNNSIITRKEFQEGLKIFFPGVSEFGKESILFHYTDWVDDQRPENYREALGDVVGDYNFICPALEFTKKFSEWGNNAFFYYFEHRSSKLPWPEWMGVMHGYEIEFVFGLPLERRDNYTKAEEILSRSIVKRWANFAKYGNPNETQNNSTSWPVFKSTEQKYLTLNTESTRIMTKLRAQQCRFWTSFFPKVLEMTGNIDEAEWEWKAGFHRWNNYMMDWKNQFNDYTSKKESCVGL
- method.summary: Inhibition of BChE (unknown origin) at 5 uM incubated for 10 mins by Ellman's method relative to control
Where a SMILES comes first, the peptide text is derived from it. The star is where a group is joined. Boc = CC(C)(C)OC(=O)*
Quick rule: inhibition of at least 40% means t, below that means f.

Completed entries (count: 7):
compound | label.class
CCn1c(CCCc2nc3c(=O)n(C)c(=O)n(C)c3[nH]2)nc2c1c(=O)n(C)c(=O)n2C | f
CN(C)c1ccc(C=CC(=O)c2nc3ccccc3[nH]2)cc1 | t
N#CC(C(=O)CCc1nc2ccccc2[nH]1)c1c(Cl)cccc1Cl (stereo not drawn) | f
COC(=O)[C@H](Cc1c[nH]c2ccccc12)NC(=O)[C@H](Cc1c[nH]c2ccccc12)NC(=O)[C@H](Cc1c[nH]c2ccccc12)NC(=O)OC(C)(C)C (Boc-Trp-Trp-Trp-OMe) | t
COC(=O)C(Cc1c[nH]c2ccccc12)NC(=O)C(Cc1c[nH]c2ccccc12)NC(=O)OCc1ccccc1 (stereo not drawn) | t
c1ccc2[nH]c(CN(CCN(Cc3nc4ccccc4[nH]3)Cc3nc4ccccc4[nH]3)Cc3nc4ccccc4[nH]3)nc2c1 | t
Cc1ccc(S(=O)(=O)OCC2CCc3[nH]c4ccccc4c3C2)cc1 (stereo not drawn) | t

Is reported inhibition greater than or equal to 40% here: Cc1cc(S(=O)(=O)N=c2[nH]c3ccccc3[nH]2)c(SCc2ccccc2)cc1Cl
t

====

- assayed.system: Cholinesterase (Homo sapiens)
- method.summary: Inhibition of BChE (unknown origin) at 5 uM incubated for 10 mins by Ellman's method relative to control
Where a SMILES comes first, the peptide text is derived from it. The star is where a group is joined. Boc = CC(C)(C)OC(=O)*
Recorded inhibition by entry
Field: numeric (%). Do not append units.

molecule | assayed.system | inhibition (%)
COC(=O)C(Cc1c[nH]c2ccccc12)NC(=O)C(Cc1c[nH]c2ccccc12)NC(=O)C(Cc1c[nH]c2ccccc12)NC(=O)C(Cc1c[nH]c2ccccc12)NC(=O)OC(C)(C)C (stereo not drawn) (Boc-WWWW-OMe; configuration not given here) | Cholinesterase (Homo sapiens) | 51.2
O=C(Nc1ccccc1)c1cc(S(=O)(=O)Nc2nc3cccnc3[nH]2)c(SSc2cc(Cl)c(C(=O)Nc3ccccc3)cc2S(=O)(=O)Nc2nc3cccnc3[nH]2)cc1Cl | Cholinesterase (Homo sapiens) | 9.9
Cn1c(=O)c2[nH]c(C(O)C(O)c3nc4c([nH]3)c(=O)n(C)c(=O)n4C)nc2n(C)c1=O (stereo not drawn) | Cholinesterase (Homo sapiens) | 25
O=c1[nH]nc(Cc2ccc(Cl)cc2)n1N=Cc1c[nH]c2ccccc12 | Cholinesterase (Homo sapiens) | 20.7
c1ccc2[nH]c(SCCSc3nc4ccccc4[nH]3)nc2c1 | Cholinesterase (Homo sapiens) | 81.2
Cn1c(=O)c2nc(COCc3nc4c(=O)n(C)c(=O)n(C)c4[nH]3)[nH]c2n(C)c1=O | Cholinesterase (Homo sapiens) | 26.5

What value of inhibition has been recorded for this entry: Fc1ccc2[nH]c3c(c2c1)C[PH](Cc1cccc2ccccc12)(c1ccccc1)CC3
97.5

Do the same for Cc1[nH]c2ccccc2c1C1=CC(c2c(C)[nH]c3ccccc23)CCC1 (stereo not drawn) please
75

====

// log10 IC50 collected for Cholinesterase (Homo sapiens)
Each number you see is log10 of IC50, and the unit inside the log is nM.

Worked examples follow.
compound | log10 IC50
Cc1cc(CSCCc2nc3ccccc3[nH]2)c(O)c(CSCCc2nc3ccccc3[nH]2)c1 | 1.51
CCN(CC)C(C)CN1c2ccccc2Sc2ccccc21 (stereo not given) | 2.32
c1ccc2[nH]c(CN(CCN(Cc3nc4ccccc4[nH]3)Cc3nc4ccccc4[nH]3)Cc3nc4ccccc4[nH]3)nc2c1 | 3.13
c1ccc2c(CN3CCN(Cc4c[nH]c5ccccc45)CC3)c[nH]c2c1 | 2.99

What value of log10 IC50 has been recorded for this entry: c1ccc2[nH]c(SCCSc3nc4ccccc4[nH]3)nc2c1
3.48

====

- assayed.system: Cholinesterase (Homo sapiens, UniProt P06276)
- method.summary: Inhibition of BChE (unknown origin) at 5 uM incubated for 10 mins by Ellman's method relative to control
Recorded inhibition by entry
Field: numeric (%). Do not append units.

Worked examples follow.
given.smiles | assayed.system | inhibition / %
Cc1ccc(S(=O)(=O)C(C#N)(Cc2c[nH]c3ccccc23)Cc2c[nH]c3ccccc23)cc1 | Cholinesterase (Homo sapiens, UniProt P06276) | 48.5
Cc1cc(S(=O)(=O)Nc2nc3ccccc3[nH]2)c(S)cc1Cl | Cholinesterase (Homo sapiens, UniProt P06276) | 48.5

// below: inhibition requested for another compound
Notebook entry, Cholinesterase (Homo sapiens, UniProt P06276) assay: inhibition of Cc1cc(S(=O)(=O)NC2=Nc3cccc4cccc(c34)N2)c(S)cc1Cl = ?
50.3
